- MEASURED_ON: soluble HLA-E-VL9, HLA-E*01:03 heavy chain refolded with β2-microglobulin and synthetic VL9 peptide (Homo sapiens, HLA-E*01:03, strain)
OBSERVABLE: binding result

>>> measured_result("CA171 (antibody, V domains shown) VH: EVQLVESGGGLVQPGGSLRLSCAASGFTFSSYSMNWVRQAPGKGLEWVSYISSSSSTIYYADSVKGRFTISRDNAKNSLYLQMNSLRAEDTAVYYCARTFYSNYLDAFDIWGQGTMVTVSS VL: EIVLTQSPDTLSMCPGERATLSCRASQSVSSYLAWYQQKPGQAPRLLIYDASNRATGIPARFSGSGSGTDFTLTISSLEPEDFAVYYCQQRSNWLSMYTFGQGTKLEIK")
"binds"
>>> measured_result("CA175 (antibody, V domains shown) VH: EVQLVESGGGLVQPGGSLRLSCAASGFTFSTYPMNWVRQAPGKGLEWVSYISSSSSTIYYADCVKGRFTISRDNAKNSLYLQMNSLRDEDTAVYYCARYYIAYGMDVWGQGTTVTVSS VL: DIQMTQSPSSMSASVGDRVTITCRASQGISNYLAWFQQKPGKAPKRLIYGASSLHRGVPSRFSGSGSGTEFTLTITSLQPEDFATYYCLQHNTYPRTFGQGTKVEIK")
"binds"
>>> measured_result("CA180 (antibody, V domains shown) VH: QVQLVQSGAEVKKPGASVKVSCKASGYTFTSYGISWVRQAPGQGLEWMGWISAYNGNTNYAQKLQGRVTMTTDTSTSTAYMELRSLRSDDTAVYYCARDLGYSSSWYTSNWFDPWGQGTLVTVSS VL: QSALTQPASVSGSPGQSITISCTGTSSDVGSYNLVSWYQQHPGKAPKLMIYEGSKRPSGVSNRFSGSKSGNTASLTISGLQAEDEADYYCCSYAGSSTVVFGGGTKLTVL")
"binds"

The measurements presented in this section are drawn from paper PMC8960791.
